# System: OVCAR-8 ovarian
# Method summary: NCI tumour cell line growth inhibition, 48 h
Readout type: TGI

1. CSc1ccc(C2=Nn3c(nnc3-c3ccc(F)c(Cl)c3)SC2)cc1    > 100 µM
2. COc1cc2[nH]c(=O)c3cc(-c4ccccc4)cc4c(Cl)nc(c1OC)c2c43    98.4 µM
3. O=C(O)c1cc[c]([Hg][S]c2ncnc3nc[nH]c23)cc1    25.3 µM
4. COC(=O)c1ccc2c(c1)C(NC(C)=O)CCc1cc(OC)c(OC)c(OC)c1-2 (configuration not stated)    9.1 µM
5. CC12CC3(C)CC(C)(C1)CC(N=[N+]=[N-])(C2)C3    > 100 µM
6. COc1ccc(C2C(Cl)C(=O)N2n2cnc3ccccc3c2=O)cc1OC (configuration not stated)    > 100 µM
7. NC(Cc1[nH]nc2ccccc12)C(=O)O (configuration not stated)    > 100 µM
8. CCOC(=O)Cn1nnc2cc(Nc3c(C)[n+]([O-])c4cc(F)c(OCC)cc4[n+]3[O-])ccc21    > 100 µM
9. Cc1ccc(S(=O)(=O)c2c(O)c3ccc(O)c(C)c3oc2=O)cc1    > 100 µM
10. CCCCN1C(=O)CC2[C@@H]3CCc4cc(OC)ccc4C3CC[C@]2(C)C1=O (some centres not stated)    > 10 µM
11. NC(N)=NS(=O)(=O)c1ccc(NC(=O)c2cccc3c(NNc4ccc(S(N)(=O)=O)cc4)c4ccccc4nc23)cc1    > 100 µM
12. O=C(Sc1c(-c2ccccc2)c(=O)n(-c2ccccc2)c(=S)n1-c1ccccc1)c1ccco1    > 100 µM
13. CC(CO)[C@H]1OC(=O)C=C2[C@@]13O[C@@H]3[C@H]1OC(=O)[C@@]3(C)[C@H]4O[C@H]4C[C@@]2(C)[C@@H]13 (some centres not stated)    9.02 µM
14. Clc1ccc([O][In]([O]c2ccc(Cl)cn2)[O]c2ccc(Cl)cn2)nc1    > 100 µM
15. C/C(=N/N(C=O)C[n+]1ccccc1)C(CN(CC(C)C)CC(C)C)C(=O)Nc1ccc(C)cc1C (configuration not stated)    > 100 µM
16. C=C1C(=O)O[C@@H]2C[C@@]3(C)CC(=O)C=C(C)[C@@H]3C[C@H]12    42.9 µM
17. COc1ccc(C2Oc3c(OC)cc(CCCO)cc3C2CO)cc1OC (configuration not stated)    > 100 µM

* * *

Here, each record is paired with measured TGI data.
# Tested on: T-47D breast
# Method summary: NCI tumour cell line growth inhibition, 48 h
Readout type: TGI (µM)

1) C[n+]1cc2c3c(ccc2c2ccc4cc5c(cc4c21)OCO5)OCO3    3.13
2) N/C(=N\OC(=O)c1ccccc1)C(C(=O)NOC(=O)c1ccccc1)C1CCCCC1 (stereo not given)    28.2

* * *

# Tested on: MALME-3M melanoma
# Method summary: NCI tumour cell line growth inhibition, 48 h
Readout type: GI50

1) CC[O-].CC[O-].O=C1C(=C([O-])c2ccccc2)C(=O)c2ccccc21.O=C1C(=C([O-])c2ccccc2)C(=O)c2ccccc21.[Ti+4]    > 100000 nM
2) S=C(N/N=C/c1cc(Cl)cc(Cl)c1)NC12CC3CC(CC(C3)C1)C2    5120 nM
3) C[C@]12CC[C@@H]3c4ccc(O)c([N+](=O)[O-])c4CC[C@H]3[C@@H]1CC[C@@H]2NS(=O)(=O)c1ccc(C(F)(F)F)cc1    1990 nM
4) O=C1/C(=C/c2ccc(Cl)cc2)CCCc2ccc(F)cc21    6450 nM
5) CCN(CCCCCCCCCCN1CC(=O)N(CCCCCCCCCCN(CC)Cc2ccccc2OC)CC1=O)Cc1ccccc1OC    1640 nM
6) CCOC(=O)c1c(NC(=O)c2ccc(C(C)C)cc2)sc2c(CN(C)C)c(O)ccc12    1720 nM
